# study target: human IKK-2 (rhIKK-2 homodimer) (Homo sapiens, UniProt O14920)
# Construct: FLAG (DYKDDDDKD) (C); made in house; host or cells: insect cells (baculovirus, pFastBac)
# Sequence (O14920 1-756): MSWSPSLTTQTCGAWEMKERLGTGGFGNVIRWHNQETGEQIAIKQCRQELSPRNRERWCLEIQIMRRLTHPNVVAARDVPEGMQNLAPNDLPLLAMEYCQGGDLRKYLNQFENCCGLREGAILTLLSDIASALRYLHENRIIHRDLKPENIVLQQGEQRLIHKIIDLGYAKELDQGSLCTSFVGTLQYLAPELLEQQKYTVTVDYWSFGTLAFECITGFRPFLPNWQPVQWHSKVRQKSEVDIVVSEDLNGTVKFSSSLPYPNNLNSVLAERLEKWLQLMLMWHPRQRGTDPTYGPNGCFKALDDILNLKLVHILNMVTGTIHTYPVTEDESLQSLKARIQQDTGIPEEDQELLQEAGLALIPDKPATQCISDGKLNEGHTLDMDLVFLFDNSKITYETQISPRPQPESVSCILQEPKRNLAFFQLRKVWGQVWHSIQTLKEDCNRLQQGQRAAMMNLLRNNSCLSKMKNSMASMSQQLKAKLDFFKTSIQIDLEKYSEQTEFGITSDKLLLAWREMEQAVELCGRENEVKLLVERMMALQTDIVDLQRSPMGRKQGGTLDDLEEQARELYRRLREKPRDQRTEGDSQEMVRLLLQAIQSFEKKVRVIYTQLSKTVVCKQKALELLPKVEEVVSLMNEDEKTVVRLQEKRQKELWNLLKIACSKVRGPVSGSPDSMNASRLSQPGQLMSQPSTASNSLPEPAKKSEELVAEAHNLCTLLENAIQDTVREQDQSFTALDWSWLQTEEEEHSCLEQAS
# method description: IKK-2 Resin Enzyme Assay (Human IKK-2 Enzyme Assay)
# Type: biochemical
# condition context: human IKK-2, resin enzyme assay; read-out: IC50 (μM) hIKK-2
readout: IC50 (µM)
Note: unit µM is implicit; provide only the numeric part.

{"columns": ["structure smiles string", "endpoint value"],
 "data": [
  ["N#CCCc1cccc(-c2ccc(-n3cc(NC(N)=O)c(C(N)=O)n3)cc2)c1", 0.86],
  ["NC(=O)Nc1cn(-c2ccc(C(=O)N3CCCCC3)cc2)nc1C(N)=O", 1.4],
  ["NC(=O)Nc1cn(-c2ccc(-c3cc(F)ccc3O)cc2)nc1C(N)=O", 0.75]
]}

Now for a further compound.
Asked: Report IC50 for NC(=O)Nc1cn(-c2ccc(-c3cccc(O)c3)cc2)nc1C(N)=O please.
Given back: 1.2

* * *

# study target: human IKK-2 (rhIKK-2 homodimer) (Homo sapiens, UniProt O14920)
# Construct: FLAG (DYKDDDDKD) (C); made in house; host or cells: insect cells (baculovirus, pFastBac)
# method description: IKK-2 Resin Enzyme Assay (Human IKK-2 Enzyme Assay)
# Format: biochemical
# condition context: human IKK-2, resin enzyme assay; read-out: IC50 (μM) hIKK-2
readout: IC50 (µM)
Supply the numeric figure in µM, leaving out any unit text.

Guide cases for IC50, answers given:
{"columns": ["compound", "study target", "endpoint value"],
 "data": [
  ["NC(=O)Nc1cn(-c2ccc(Sc3ccccc3O)cc2)nc1C(N)=O [Example 208]", "human IKK-2 (rhIKK-2 homodimer) (Homo sapiens, UniProt O14920)", 0.328],
  ["Cc1cccc(-c2ccc(-n3cc(NC(N)=O)c(C(N)=O)n3)cc2)c1 [Example 102]", "human IKK-2 (rhIKK-2 homodimer) (Homo sapiens, UniProt O14920)", 2.82],
  ["NC(=O)Nc1cn(-c2cccc(-c3cc(F)ccc3O)c2)nc1C(N)=O [Example 93]", "human IKK-2 (rhIKK-2 homodimer) (Homo sapiens, UniProt O14920)", 3.1],
  ["CCOc1cc(-n2cc(NC(N)=O)c(C(N)=O)n2)ccc1-c1cccc(OCC#N)c1 [Example 231]", "human IKK-2 (rhIKK-2 homodimer) (Homo sapiens, UniProt O14920)", 4.88]
]}

Asked: Query IC50 on human IKK-2 (rhIKK-2 homodimer) (Homo sapiens, UniProt O14920) for NC(=O)Nc1cn(-c2ccc(S(=O)(=O)c3ccccc3F)cc2)nc1C(N)=O [Example 194]
Given back: 0.15

* * *

Reported IC50 values follow for various molecules
# study target: human IKK-2 (rhIKK-2 homodimer) (Homo sapiens)
# Construct: FLAG (DYKDDDDKD) (C); made in house; host or cells: insect cells (baculovirus, pFastBac)
# Sequence (O14920 1-756): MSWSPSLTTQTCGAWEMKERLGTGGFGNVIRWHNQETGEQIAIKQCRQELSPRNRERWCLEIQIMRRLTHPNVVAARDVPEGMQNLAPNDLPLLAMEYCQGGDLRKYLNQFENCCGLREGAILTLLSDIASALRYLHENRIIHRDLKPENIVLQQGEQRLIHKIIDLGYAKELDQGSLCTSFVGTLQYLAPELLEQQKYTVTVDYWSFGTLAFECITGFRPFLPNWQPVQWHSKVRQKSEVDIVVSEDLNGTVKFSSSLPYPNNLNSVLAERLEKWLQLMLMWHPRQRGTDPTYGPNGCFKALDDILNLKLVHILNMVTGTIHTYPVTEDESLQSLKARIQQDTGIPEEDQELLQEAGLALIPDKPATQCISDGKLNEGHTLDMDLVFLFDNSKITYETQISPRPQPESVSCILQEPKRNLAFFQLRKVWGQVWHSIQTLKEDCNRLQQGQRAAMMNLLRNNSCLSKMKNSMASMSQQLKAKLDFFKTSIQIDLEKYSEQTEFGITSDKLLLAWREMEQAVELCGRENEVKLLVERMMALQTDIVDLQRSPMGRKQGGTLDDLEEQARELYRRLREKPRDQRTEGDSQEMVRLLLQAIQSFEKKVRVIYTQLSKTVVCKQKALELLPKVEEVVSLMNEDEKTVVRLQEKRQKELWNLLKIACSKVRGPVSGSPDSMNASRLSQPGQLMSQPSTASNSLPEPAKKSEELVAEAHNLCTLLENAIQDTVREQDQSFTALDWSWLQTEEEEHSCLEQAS
# method description: IKK-2 Resin Enzyme Assay (Human IKK-2 Enzyme Assay)
# Type: biochemical
# condition context: human IKK-2, resin enzyme assay; read-out: IC50 (μM) hIKK-2
Just the number in µM, nothing appended.

{"columns": ["structure smiles string", "readout", "endpoint value"],
 "data": [
  ["NC(=O)Nc1cn(-c2ccc(-c3ccc(C(=O)OCc4cccc(F)c4)c(F)c3)cc2)nc1C(N)=O", "IC50", 16.6],
  ["NC(=O)Nc1cn(-c2cccc(-c3ccc(C(=O)O)cc3)c2)nc1C(N)=O", "IC50", 2.81],
  ["NC(=O)Nc1cn(-c2cccc(-c3ccc[nH]3)c2)nc1C(N)=O", "IC50", 0.55]
]}

Asked: Endpoint output: IC50 of N#CCOc1cccc(-c2ccc(-n3cc(NC(N)=O)c(C(N)=O)n3)cc2F)c1 . Value?
Given back: 1.53

* * *

# study target: human IKK-2 (rhIKK-2 homodimer) (Homo sapiens)
# Construct: FLAG (DYKDDDDKD) (C); made in house; host or cells: insect cells (baculovirus, pFastBac)
# method description: IKK-2 Resin Enzyme Assay (Human IKK-2 Enzyme Assay)
# Format: biochemical
# condition context: human IKK-2, resin enzyme assay; read-out: IC50 (μM) hIKK-2
readout: IC50 (µM)
# unit: µM | format: bare number

{"columns": ["structure smiles string", "IC50 / µM"],
 "data": [
  ["NC(=O)Nc1nn(-c2ccc(-c3ccc(C(F)(F)F)cc3)cc2)cc1C(N)=O", 18.8]
]}

Asked: // lookup IC50 for CC(C)c1ccc(-n2cc(NC(N)=O)c(C(N)=O)n2)cc1
Given back: 0.159

Asked: // lookup IC50 for CNC(=O)COc1ccc(F)cc1-c1ccc(-n2cc(NC(N)=O)c(C(N)=O)n2)cc1
Given back: 1.07

Asked: Which IC50 value is on record for CCOC(=O)c1ccc(-c2ccc(-n3cc(NC(N)=O)c(C(N)=O)n3)cc2)cc1 ?
Given back: 6.01

Asked: Entry under review: NC(=O)Nc1cn(-c2cc(Cl)ccc2F)nc1C(N)=O . Reported IC50?
Given back: 3.3

Asked: Tell me the measured IC50 of N#Cc1cccc(-c2cccc(-n3cc(NC(N)=O)c(C(N)=O)n3)c2)c1 , please.
Given back: 0.984

Asked: Using the record for Cc1cc(-n2cc(NC(N)=O)c(C(N)=O)n2)ccc1-c1ccc(F)cc1O , report its IC50.
Given back: 1.68

Asked: Using the record for NC(=O)Nc1cn(-c2cccc(-c3ccc4[nH]ccc4c3)c2)nc1C(N)=O , report its IC50.
Given back: 1.8

Asked: Quick check: IC50 of COc1cccc(CNC(=O)c2ccc(-c3ccc(-n4cc(NC(N)=O)c(C(N)=O)n4)cc3)cc2F)c1 ?
Given back: 0.32

Asked: Any idea what its IC50 is? The molecule is NC(=O)Nc1cn(-c2ccc(-c3cccc(C(=O)O)c3)cc2)nc1C(N)=O
Given back: 1.45

Asked: Endpoint output: IC50 of NC(=O)Nc1cn(-c2ccc(I)c(Cl)c2)nc1C(N)=O . Value?
Given back: 0.546

Asked: Any idea what its IC50 is? The molecule is COc1ccc(Cl)cc1-c1cccc(-n2cc(NC(N)=O)c(C(N)=O)n2)c1
Given back: 11.6

Asked: Entry under review: COc1ccc(CNC(=O)c2ccc(-c3ccc(-n4cc(NC(N)=O)c(C(N)=O)n4)cc3)cc2F)cc1 . Reported IC50?
Given back: 0.63
